FYI, the data here is from patent US20240041042A1.

# Tested on: Amaranthus retroflexus (AMARE)
# assay remarks: Pre-emergence herbicidal action against AMARE
# Format: in vivo
# particulars: 80 g/ha, visual scoring after about 3 weeks vs untreated controls
quantity measured: Pre-emergence action against AMARE in % (%)

[[record]]
compound = "COC(=O)COc1nn(-c2ncccc2F)c(-c2cncc(F)c2)c1C1CC1 [Example I-167]"
unit_label = "%"
observed = 100

[[record]]
compound = "C[C@@H](Oc1nn(-c2ncccc2F)c(-c2ccc(F)nc2)c1I)C(=O)O [Example I-343]"
unit_label = "%"
observed = 100

[[record]]
compound = "COC(=O)[C@@H](C)Oc1nn(-c2nc(F)ccc2F)c(-c2ccc(F)nc2)c1Cl [Example I-332]"
unit_label = "%"
observed = 80

[[record]]
compound = "CCOC(=O)COc1nn(-c2ncccc2C)c(-c2ccc(F)nc2)c1Cl [Example I-316]"
unit_label = "%"
observed = 100

[[record]]
compound = "CCOC(=O)COc1nn(-c2ncccc2C)c(-c2cncc(F)c2)c1Br [Example I-211]"
unit_label = "%"
observed = 100

[[record]]
compound = "O=C(O)CSc1nn(-c2ccccn2)c(-c2ccc(F)nc2)c1Br [Example I-69]"
unit_label = "%"
observed = 80

[[record]]
compound = "CCOC(=O)COc1nn(-c2nc(F)ccc2F)c(-c2ccc(F)nc2)c1Cl [Example I-315]"
unit_label = "%"
observed = 90

[[record]]
compound = "COC(=O)CCOC(=O)COc1nn(-c2ccccn2)c(-c2cncc(F)c2)c1Cl [Example I-75]"
unit_label = "%"
observed = 80


---

Consider the following compounds and their measured Post-emergence action against DIGSA in % readings.
# System: Digitaria sanguinalis (DIGSA)
# assay remarks: Post-emergence herbicidal action against DIGSA
# Assay type: in vivo
# particulars: 80 g/ha, visual rating about 3 weeks after treatment
quantity measured: Post-emergence action against DIGSA in % (%)

[[record]]
compound = "O=C(COc1nn(-c2ncccc2F)c(-c2ccc(F)nc2)c1C1CC1)OCC(F)(F)F"
system_under_test = "Digitaria sanguinalis (DIGSA)"
quantity_measured = "Post-emergence action against DIGSA in %"
observed = 80

[[record]]
compound = "COC(=O)C(C)OC(=O)C(C)Oc1nn(-c2ccccn2)c(-c2ccc(F)nc2)c1Br (stereo not drawn)"
system_under_test = "Digitaria sanguinalis (DIGSA)"
quantity_measured = "Post-emergence action against DIGSA in %"
observed = 80

[[record]]
compound = "CC(C)OC(=O)COc1nn(-c2ncccc2F)c(-c2ccc(F)nc2)c1C1CC1"
system_under_test = "Digitaria sanguinalis (DIGSA)"
quantity_measured = "Post-emergence action against DIGSA in %"
observed = 90


---

# Tested on: Triticum aestivum (TRZAS)
# Format: in vivo
# particulars: 20 g/ha; crop plant compatibility, effect vs untreated controls
The following molecules are shown together with reported Pre-emergence action against TRZAS values.
quantity measured: Pre-emergence action against TRZAS (%)

[[record]]
molecule = "C[C@@H](Oc1nn(-c2ccc(F)cn2)c(-c2cncc(F)c2)c1Br)C(=O)O [Example I-13]"
quantity_measured = "Pre-emergence action against TRZAS"
unit_label = "%"
observed = 10

[[record]]
molecule = "O=C(O)COc1nn(-c2ncccc2F)c(-c2ccc(F)nc2)c1Br [Example I-17]"
quantity_measured = "Pre-emergence action against TRZAS"
unit_label = "%"
observed = 10

[[record]]
molecule = "COC(=O)COc1nn(-c2ncccc2F)c(-c2cncc(F)c2)c1Br [Example I-16]"
quantity_measured = "Pre-emergence action against TRZAS"
unit_label = "%"
observed = 10

[[record]]
molecule = "COC(=O)[C@@H](C)Oc1nn(-c2ncccc2F)c(-c2cncc(F)c2)c1Br [Example I-15]"
quantity_measured = "Pre-emergence action against TRZAS"
unit_label = "%"
observed = 10

[[record]]
molecule = "COC(=O)[C@@H](C)Oc1nn(-c2ccc(F)cn2)c(-c2ccc(F)nc2)c1Br [Example I-11]"
quantity_measured = "Pre-emergence action against TRZAS"
unit_label = "%"
observed = 0


---

# System: Triticum aestivum (TRZAS)
# Type: in vivo
# particulars: crop plant compatibility, 20 g/ha, effect vs untreated controls
quantity measured: Post-emergence action against TRZAS in % (%)

[[record]]
compound = "COC(=O)CCOC(=O)COc1nn(-c2ccnc(Cl)c2)c(-c2ccc(F)nc2)c1Br [III-19]"
system_under_test = "Triticum aestivum (TRZAS)"
quantity_measured = "Post-emergence action against TRZAS in %"
observed = 20

[[record]]
compound = "CCOC(=O)COc1nn(-c2cccnc2C)c(-c2cncc(F)c2)c1Br [II-45]"
system_under_test = "Triticum aestivum (TRZAS)"
quantity_measured = "Post-emergence action against TRZAS in %"
observed = 0

[[record]]
compound = "N#CCOC(=O)COc1nn(-c2ncccc2F)c(-c2ccc(F)nc2)c1C1CC1 [Example I-294]"
system_under_test = "Triticum aestivum (TRZAS)"
quantity_measured = "Post-emergence action against TRZAS in %"
observed = 10

[[record]]
compound = "O=C(O)COc1nn(-c2ncccc2F)c(-c2ccnc(F)c2)c1Br [Example I-139]"
system_under_test = "Triticum aestivum (TRZAS)"
quantity_measured = "Post-emergence action against TRZAS in %"
observed = 0

[[record]]
compound = "Cc1ncccc1-n1nc(OCC(=O)O)c(Cl)c1-c1cncc(F)c1 [II-42]"
system_under_test = "Triticum aestivum (TRZAS)"
quantity_measured = "Post-emergence action against TRZAS in %"
observed = 0

[[record]]
compound = "Cc1cccnc1-n1nc(OCC(=O)O)c(Cl)c1-c1cncc(F)c1 [Example I-182]"
system_under_test = "Triticum aestivum (TRZAS)"
quantity_measured = "Post-emergence action against TRZAS in %"
observed = 10

[[record]]
compound = "O=C(COc1nn(-c2ccccn2)c(-c2ccc(F)nc2)c1Cl)NS(=O)(=O)CC(F)(F)F [Example I-119]"
system_under_test = "Triticum aestivum (TRZAS)"
quantity_measured = "Post-emergence action against TRZAS in %"
observed = 20

[[record]]
compound = "COC(=O)[C@H](C)COC(=O)COc1nn(-c2ccnc(Cl)c2)c(-c2ccc(F)nc2)c1Br [III-17]"
system_under_test = "Triticum aestivum (TRZAS)"
quantity_measured = "Post-emergence action against TRZAS in %"
observed = 20

[[record]]
compound = "O=C(COc1nn(-c2ncccc2F)c(-c2ccc(F)nc2)c1C1CC1)ON=C1CCCC1 [Example I-380]"
system_under_test = "Triticum aestivum (TRZAS)"
quantity_measured = "Post-emergence action against TRZAS in %"
observed = 20

[[record]]
compound = "COC(=O)COc1nn(-c2ncccc2F)c(-c2ccnc(F)c2)c1Br [Example I-130]"
system_under_test = "Triticum aestivum (TRZAS)"
quantity_measured = "Post-emergence action against TRZAS in %"
observed = 20

[[record]]
compound = "COC(=O)CCOC(=O)COc1nn(-c2ccccn2)c(-c2cncc(F)c2)c1Cl [Example I-75]"
system_under_test = "Triticum aestivum (TRZAS)"
quantity_measured = "Post-emergence action against TRZAS in %"
observed = 20

[[record]]
compound = "COC(=O)CCOC(=O)COc1nn(-c2ncccc2F)c(-c2ccc(F)nc2)c1C1CC1 [Example I-383]"
system_under_test = "Triticum aestivum (TRZAS)"
quantity_measured = "Post-emergence action against TRZAS in %"
observed = 20

[[record]]
compound = "C[C@@H](Oc1nn(-c2ncccc2F)c(-c2ccnc(F)c2)c1Br)C(=O)O [Example I-140]"
system_under_test = "Triticum aestivum (TRZAS)"
quantity_measured = "Post-emergence action against TRZAS in %"
observed = 10

[[record]]
compound = "CCOC(=O)[C@@H](C)Oc1nn(-c2ncccc2F)c(-c2cncc(F)c2)c1Cl [Example I-145]"
system_under_test = "Triticum aestivum (TRZAS)"
quantity_measured = "Post-emergence action against TRZAS in %"
observed = 20

[[record]]
compound = "COC(=O)COc1nn(-c2cccnc2C)c(-c2cncc(F)c2)c1Cl [II-44]"
system_under_test = "Triticum aestivum (TRZAS)"
quantity_measured = "Post-emergence action against TRZAS in %"
observed = 20

[[record]]
compound = "COC(=O)CN(C)C(=O)COc1nn(-c2ccccn2)c(-c2ccc(F)nc2)c1Br [Example I-114]"
system_under_test = "Triticum aestivum (TRZAS)"
quantity_measured = "Post-emergence action against TRZAS in %"
observed = 0

[[record]]
compound = "CCOC(=O)COc1nn(-c2ccccn2)c(-c2ccc(F)nc2)c1C1CC1 [Example I-78]"
system_under_test = "Triticum aestivum (TRZAS)"
quantity_measured = "Post-emergence action against TRZAS in %"
observed = 0


---

# Test system: Matricaria inodora (MATIN)
# assay remarks: Pre-emergence herbicidal action against MATIN
# Assay type: in vivo
# particulars: dosage 320 g/ha
quantity measured: Pre-emergence action against MATIN in % (%)

[[record]]
compound = "CCOC(=O)C(C)Oc1nn(-c2ccccn2)c(-c2ccc(F)nc2)c1C(F)(F)F (centres unmarked)"
observed = 90

[[record]]
compound = "CN(C)S(=O)(=O)NC(=O)COc1nn(-c2ncccc2F)c(-c2ccc(F)nc2)c1Br"
observed = 100

[[record]]
compound = "O=C(O)COc1nn(-c2ncccc2F)c(-c2cncc(F)c2)c1C1CC1"
observed = 90

[[record]]
compound = "COC(=O)CNC(=O)[C@@H](C)Oc1nn(-c2ccccn2)c(-c2cncc(F)c2)c1Cl"
observed = 90

[[record]]
compound = "C[C@@H](Oc1nn(-c2nc(F)ccc2F)c(-c2cncc(F)c2)c1C1CC1)C(=O)O"
observed = 90

[[record]]
compound = "O=C(CSc1nn(-c2ccccn2)c(-c2cncc(F)c2)c1Br)NC1CC1"
observed = 80

[[record]]
compound = "COC(=O)CCOC(=O)COc1nn(-c2ccccn2)c(-c2ccc(F)nc2)c1Br"
observed = 90

[[record]]
compound = "O=C(O)COc1nn(-c2ccccn2)c(-c2ccc(F)nc2)c1F"
observed = 90

[[record]]
compound = "COC(=O)[C@@H](C)Oc1nn(-c2ccnc(Cl)c2)c(-c2ccc(F)nc2)c1Br"
observed = 100

[[record]]
compound = "C[C@@H](Oc1nn(-c2nc(F)ccc2F)c(-c2ccc(F)nc2)c1C1CC1)C(=O)O"
observed = 90

[[record]]
compound = "O=C(O)CSc1nn(-c2ccccn2)c(-c2cncc(F)c2)c1C1CC1"
observed = 80

[[record]]
compound = "O=C(O)COc1nn(-c2ncccc2C(F)(F)F)c(-c2ccc(F)nc2)c1Cl"
observed = 80

[[record]]
compound = "C[C@@H](Oc1nn(-c2ncccc2F)c(-c2ccc(F)nc2)c1C(F)(F)F)C(=O)O"
observed = 100

[[record]]
compound = "COC(=O)[C@@H](C)COC(=O)COc1nn(-c2ccccn2)c(-c2cncc(F)c2)c1Br"
observed = 90

[[record]]
compound = "COC(=O)[C@H](C)COC(=O)COc1nn(-c2ccccn2)c(-c2cncc(F)c2)c1Cl [Example I-192]"
observed = 90

[[record]]
compound = "COC(=O)[C@H](C)COC(=O)COc1nn(-c2ccccn2)c(-c2cncc(F)c2)c1Cl [Example I-74]"
observed = 90

[[record]]
compound = "CCOC(=O)COc1nn(-c2nc(F)ccc2F)c(-c2ccc(F)nc2)c1C1CC1"
observed = 90

